tested-system: AMPA receptor
method-description: AMPA binding assay ([3H]-AMPA)
details: [3H]-AMPA binding; unit inferred
pIC50: −log10 of the molar value.
property: pIC50

O=C(O)/C=C/c1c(C(=O)O)[nH]c2cc(Cl)cc(Cl)c12 :: 3.69
[N-]=[N+]=Nc1cccc(S(=O)(=O)NC(=O)CCc2c(C(=O)O)[nH]c3cc(Cl)cc(Cl)c23)c1 :: 3.82
O=C(/C=C/c1c(C(=O)O)[nH]c2cc(Cl)cc(Cl)c12)NS(=O)(=O)c1ccccc1 :: 3.91
O=C(CCc1c(C(=O)O)[nH]c2cc(Cl)cc(Cl)c12)NS(=O)(=O)c1ccccc1 :: 3.95
O=C(CCCc1c(C(=O)O)[nH]c2cc(Cl)cc(Cl)c12)NS(=O)(=O)c1ccccc1 :: 3.97

(P) CS(=O)(=O)NC(=O)CCc1c(C(=O)O)[nH]c2cc(Cl)cc(Cl)c12
(Q) O=C(/C=C/c1c(C(=O)O)[nH]c2cc(Cl)cc(Cl)c12)NCc1ccccc1
Inquiry: Return label of the item with the larger pIC50. Candidates: P , Q . Refer to your chosen entry by its label in the reply.
Reply text: P
(P: 4.10, Q: 3.67)

* * *

tested-system: strychnine insensitive glycine receptor which is located on the NMDA receptor complex (Rattus norvegicus)
method-description: glycine binding assay ([3H]-Gly)
details: [3H]-glycine binding
property: IC50 (nM)

[N-]=[N+]=Nc1cccc(S(=O)(=O)NC(=O)CCc2c(C(=O)O)[nH]c3cc(Cl)cc(Cl)c23)c1 :: 79

(A) CS(=O)(=O)NC(=O)CCc1c(C(=O)O)[nH]c2cc(Cl)cc(Cl)c12
(B) O=C(CCc1c(C(=O)O)[nH]c2cc(Cl)cc(Cl)c12)NS(=O)(=O)c1ccccc1
(C) O=C(O)/C=C/c1c(C(=O)O)[nH]c2cc(Cl)cc(Cl)c12
Inquiry: Please put the entries in order of rising IC50. List the labels, following the order given in the request.
Reply text: B, C, A
